study_target: human recombinant HDAC6 (Homo sapiens)
Construct: purchased Calbiochem Inc. 382180
test: HDAC6 enzyme activity inhibition (HDAC Fluorimetric Drug Discovery Kit)
Type: biochemical
study_conditions: human recombinant HDAC6; IC50 calculated with GraphPad Prism
readout_name: pIC50
Answers are plain numbers, as −log10 of the molar value.

Here's what some known entries look like.
{"compound": "FC(F)c1nnc(-c2ccc(Cn3cc(C4CCCCC4)nn3)nc2)o1 [Compound 3880]", "readout_number": 7.10}
{"compound": "CCN1[C@H](C)CN(c2cccc(-c3cn(Cc4ccc(-c5nnc(C(F)F)o5)cc4)nn3)c2)C[C@@H]1C [Compound 4442]", "readout_number": 7.40}
{"compound": "CC(C)N1CC(N2CCC(c3cccc(-c4cn(Cc5ccc(-c6nnc(C(F)F)o6)cc5F)nn4)c3)CC2)C1 [Compound 4296]", "readout_number": 7.49}
{"compound": "CN1CCN(c2cccc(-c3cn(Cc4ccc(-c5nnc(C(F)F)o5)cc4)nn3)c2F)CC1 [Compound 4483]", "readout_number": 7.47}

Give measured pIC50 for every item shown.
1. CCN1CCN(c2cccc(-c3cn(Cc4ccc(-c5nnc(C(F)F)o5)cn4)nn3)c2)CC1 [Compound 3988]
2. CC(=O)N1CCCC(c2cn(Cc3ccc(-c4nnc(C(F)F)o4)cn3)nn2)C1 (stereo not shown) [Compound 4004]
3. CC(C)C(=O)N1CC(c2cn(Cc3ccc(-c4nnc(C(F)F)o4)cn3)nn2)C1 [Compound 3958]
4. FC(F)c1nnc(-c2ccc(Cn3cc(C4CN(C5CCC5)C4)nn3)nc2)o1 [Compound 3954]

Result:
[7.97, 6.48, 6.37, 6.37]

====

Exercise: for every item that follows, state its recorded IC50.
study_target: human recombinant HDAC6 (Homo sapiens)
Construct: purchased Calbiochem Inc. 382180
test: HDAC6 enzyme activity inhibition (HDAC Fluorimetric Drug Discovery Kit)
Format: biochemical
study_conditions: human recombinant HDAC6; IC50 calculated with GraphPad Prism
Numbers only, in nM.

{"compound": "CN(C)Cc1c[nH]c2cc(-c3cn(Cc4ccc(-c5nnc(C(F)F)o5)cn4)nn3)ccc12", "IC50, nM": 10.8}

Respectfully, I request IC50 for each entry included below.
1. FC(F)c1nnc(-c2ccc(Cn3cc(-c4cccc(N5CCN(C6COC6)CC5)c4)nn3)nc2)o1
2. FC(F)c1nnc(-c2ccc(Cn3cc(-c4ccc5[nH]ncc5c4)nn3)nc2)o1
3. O=C(Nc1cccc(-c2cn(Cc3ccc(-c4nnc(C(F)F)o4)cn3)nn2)c1)C1CN(C2COC2)C1

Result:
1. 31.3
2. 8.5
3. 22.5

Hi! Can you tell me IC50 for each of these compounds?
1. FC(F)c1nnc(-c2ccc(Cn3cc(C4CCCN(C5COC5)C4)nn3)nc2)o1 (stereo not shown)
2. CN(C)c1cccc(-c2cn(Cc3ccc(-c4nnc(C(F)F)o4)cc3)nn2)c1
3. Cc1ccccc1-c1cn(Cc2ccc(-c3nnc(C(F)F)o3)cn2)nn1
4. O=C(O)c1cccc(-c2cn(Cc3ccc(-c4nnc(C(F)F)o4)cc3)nn2)c1
5. CCN1CC(C(=O)Nc2cccc(-c3cn(Cc4ccc(-c5nnc(C(F)F)o5)cn4)nn3)c2)C1
6. COC(=O)Nc1cccc(-c2cn(Cc3ccc(-c4nnc(C(F)F)o4)cc3F)nn2)c1

Result:
484
161
128
409
30.3
25.2

Working through the 6 compounds below one at a time, give IC50 for each.
1. CCN1CCC(c2cn(Cc3ccc(-c4nnc(C(F)F)o4)cn3)nn2)CC1
2. FC(F)c1nnc(-c2ccc(Cn3cnc(-c4ccccc4)c3)nc2)o1
3. FC(F)c1nnc(-c2ccc(Cn3cc(-c4cccnc4)nn3)nc2)o1
4. CCCCc1cn(Cc2ccc(-c3nnc(C(F)F)o3)cn2)nn1
5. FC(F)c1nnc(-c2ccc(Cn3cc(-c4cccc5[nH]ccc45)nn3)cc2)o1
6. CCC(F)(CC)CN1CCC(c2cccc(-c3cn(Cc4ccc(-c5nnc(C(F)F)o5)cc4F)nn3)c2)CC1

Result:
1: 301; 2: 52.4; 3: 42.7; 4: 190; 5: 35.1; 6: 605

====

study_target: human recombinant HDAC6 (Homo sapiens)
Construct: purchased Calbiochem Inc. 382180
test: HDAC6 enzyme activity inhibition (HDAC Fluorimetric Drug Discovery Kit)
Assay type: biochemical
study_conditions: HDAC6 over HDAC1
Task for the reader: assign each of the following molecules its reported HDAC6 selectivity (fold).
Give bare numbers, in fold.

{"smiles_input": "Fc1cc(-c2nnc(C(F)F)o2)cnc1Cn1cc(-c2ccc(CN3CCCC3)cc2)nn1", "u": "fold", "readout_number": 2272}

Batch request: HDAC6 selectivity (fold) for each of the following molecules.
1. Fc1cc(-c2nnc(C(F)F)o2)cnc1Cn1cc(-c2ccc3[nH]ncc3c2)nn1
2. Fc1cc(-c2nnc(C(F)F)o2)ccc1Cn1cc(-c2ccnc(N3CCN(C4COC4)CC3)c2)nn1
3. Fc1cc(-c2nnc(C(F)F)o2)ccc1Cn1cc(-c2ccnc3[nH]ccc23)nn1
4. CCN1CCN(Cc2ccc(-c3cn(Cc4ccc(-c5nnc(C(F)F)o5)cn4)nn3)cc2)CC1
5. Fc1cc(-c2nnc(C(F)F)o2)ccc1Cn1cc(-c2csc(CN3CCCC3)c2)nn1
6. Fc1cc(-c2nnc(C(F)F)o2)cnc1Cn1cc(-c2cccc(C3CCN(C4CN(C5CCC5)C4)CC3)c2)nn1
7. CC1CCN(Cc2ccc(-c3cn(Cc4ncc(-c5nnc(C(F)F)o5)cc4F)nn3)cc2)CC1
8. Fc1cc(-c2nnc(C(F)F)o2)cnc1Cn1cc(-c2ccccc2)nn1

Result:
1190
1567
3846
2222
605
429
1028
628

Fill in HDAC6 selectivity (fold) for each of the 2 molecules listed.
1. CN(C)Cc1ccc(-c2cn(Cc3ncc(-c4nnc(C(F)F)o4)cc3F)nn2)cc1
2. Fc1cc(-c2nnc(C(F)F)o2)ccc1Cn1cc(-c2ccc(CN3CC[C@H](F)C3)nc2)nn1

Result:
1. 770
2. 769

====

study_target: human recombinant HDAC6 (Homo sapiens)
Construct: purchased Calbiochem Inc. 382180
Sequence (Q9UBN7 1-1215): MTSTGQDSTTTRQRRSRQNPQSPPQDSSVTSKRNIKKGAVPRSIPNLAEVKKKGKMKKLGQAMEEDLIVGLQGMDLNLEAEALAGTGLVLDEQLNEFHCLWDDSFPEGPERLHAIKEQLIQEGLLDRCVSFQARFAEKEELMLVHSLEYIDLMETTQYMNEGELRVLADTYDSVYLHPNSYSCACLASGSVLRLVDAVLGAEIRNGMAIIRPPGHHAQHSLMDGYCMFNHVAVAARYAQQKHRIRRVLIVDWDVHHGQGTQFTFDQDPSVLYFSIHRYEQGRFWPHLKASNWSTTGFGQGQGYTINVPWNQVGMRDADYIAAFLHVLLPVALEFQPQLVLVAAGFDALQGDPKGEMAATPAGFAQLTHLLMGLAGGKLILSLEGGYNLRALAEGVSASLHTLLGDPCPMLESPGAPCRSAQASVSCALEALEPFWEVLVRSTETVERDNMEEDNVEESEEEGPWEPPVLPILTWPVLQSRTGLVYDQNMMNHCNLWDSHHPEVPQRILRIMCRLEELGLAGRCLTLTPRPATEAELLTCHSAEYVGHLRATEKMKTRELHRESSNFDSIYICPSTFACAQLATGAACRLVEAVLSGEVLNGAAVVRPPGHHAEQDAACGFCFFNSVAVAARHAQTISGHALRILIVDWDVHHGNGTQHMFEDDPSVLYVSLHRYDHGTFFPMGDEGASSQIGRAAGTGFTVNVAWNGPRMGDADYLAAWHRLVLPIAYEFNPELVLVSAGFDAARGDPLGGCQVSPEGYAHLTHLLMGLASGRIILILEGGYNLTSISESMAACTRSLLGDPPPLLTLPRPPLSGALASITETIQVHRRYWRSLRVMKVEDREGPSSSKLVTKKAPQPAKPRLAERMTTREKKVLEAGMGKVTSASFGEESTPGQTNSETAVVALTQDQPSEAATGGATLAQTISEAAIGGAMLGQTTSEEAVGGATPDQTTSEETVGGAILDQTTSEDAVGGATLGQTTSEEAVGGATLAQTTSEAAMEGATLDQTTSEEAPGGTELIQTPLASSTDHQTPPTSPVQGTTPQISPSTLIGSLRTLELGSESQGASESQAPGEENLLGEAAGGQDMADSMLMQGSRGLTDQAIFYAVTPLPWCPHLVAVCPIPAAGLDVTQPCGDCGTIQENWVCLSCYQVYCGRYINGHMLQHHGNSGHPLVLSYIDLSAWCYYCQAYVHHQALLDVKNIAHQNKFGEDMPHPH
test: HDAC6 enzyme activity inhibition (HDAC Fluorimetric Drug Discovery Kit)
Format: biochemical
study_conditions: HDAC1 IC50 / HDAC6 IC50
Description: An experiment was conducted to identify the selectivity of the compound represented by formula I of the present invention to HDAC6 through an experiment on HDAC1 and HDAC6 enzyme activity inhibition. […]
Outcome: class 1 for HDAC6 selectivity (fold) of at least 900 fold; class 0 for anything lower.

Q: Determine whether measured HDAC6 selectivity (fold) meets or exceeds 900 fold for CC(C)N1CCc2ccc(-c3cn(Cc4ccc(-c5nnc(C(F)F)o5)cc4F)nn3)cc2C1 [Compound 4365]
Result: class 1

Q: Identify whether the reported HDAC6 selectivity (fold) of the following molecule is 900 fold or greater: CCN1CCN(Cc2cccc(-c3cn(Cc4ccc(-c5nnc(C(F)F)o5)cc4F)nn3)c2)CC1 [Compound 4407]
Result: class 1

Q: Reported HDAC6 selectivity (fold) at or above 900 fold? O=C(O)c1ccc(-c2cn(Cc3ccc(-c4nnc(C(F)F)o4)cc3)nn2)cc1 [Compound 3731]
Result: class 0

Q: State whether the measured HDAC6 selectivity (fold) reaches 900 fold, counting equality as reaching it, for CCN1CC(C(=O)Nc2cccc(-c3cn(Cc4ccc(-c5nnc(C(F)F)o5)cn4)nn3)c2)C1 [Compound 4464]
Result: class 1

Q: State whether the measured HDAC6 selectivity (fold) reaches 900 fold, counting equality as reaching it, for Fc1cc(-c2nnc(C(F)F)o2)ccc1Cn1cc(-c2cccc(C3CN(C4COC4)C3)c2)nn1 [Compound 4462]
Result: class 0

Q: # bool: HDAC6 selectivity (fold) of FC(F)(F)c1nnc(-c2ccc(Cn3nnc(-c4ccccc4)n3)nc2)o1 [Compound 4235] >= 900 fold
Result: class 0

Q: Decide: is the reported value of HDAC6 selectivity (fold) for CN1CCN(c2cccc(-c3cn(Cc4ccc(-c5nnc(C(F)F)o5)cc4F)nn3)c2)CC1 [Compound 4337] equal to or greater than 900 fold?
Result: class 1

Cited source: patent US20230257372A1
